- Measurement Target: Cav3.2 (Homo sapiens, UniProt O95180)
- Sequence (O95180 whole entry, looked up): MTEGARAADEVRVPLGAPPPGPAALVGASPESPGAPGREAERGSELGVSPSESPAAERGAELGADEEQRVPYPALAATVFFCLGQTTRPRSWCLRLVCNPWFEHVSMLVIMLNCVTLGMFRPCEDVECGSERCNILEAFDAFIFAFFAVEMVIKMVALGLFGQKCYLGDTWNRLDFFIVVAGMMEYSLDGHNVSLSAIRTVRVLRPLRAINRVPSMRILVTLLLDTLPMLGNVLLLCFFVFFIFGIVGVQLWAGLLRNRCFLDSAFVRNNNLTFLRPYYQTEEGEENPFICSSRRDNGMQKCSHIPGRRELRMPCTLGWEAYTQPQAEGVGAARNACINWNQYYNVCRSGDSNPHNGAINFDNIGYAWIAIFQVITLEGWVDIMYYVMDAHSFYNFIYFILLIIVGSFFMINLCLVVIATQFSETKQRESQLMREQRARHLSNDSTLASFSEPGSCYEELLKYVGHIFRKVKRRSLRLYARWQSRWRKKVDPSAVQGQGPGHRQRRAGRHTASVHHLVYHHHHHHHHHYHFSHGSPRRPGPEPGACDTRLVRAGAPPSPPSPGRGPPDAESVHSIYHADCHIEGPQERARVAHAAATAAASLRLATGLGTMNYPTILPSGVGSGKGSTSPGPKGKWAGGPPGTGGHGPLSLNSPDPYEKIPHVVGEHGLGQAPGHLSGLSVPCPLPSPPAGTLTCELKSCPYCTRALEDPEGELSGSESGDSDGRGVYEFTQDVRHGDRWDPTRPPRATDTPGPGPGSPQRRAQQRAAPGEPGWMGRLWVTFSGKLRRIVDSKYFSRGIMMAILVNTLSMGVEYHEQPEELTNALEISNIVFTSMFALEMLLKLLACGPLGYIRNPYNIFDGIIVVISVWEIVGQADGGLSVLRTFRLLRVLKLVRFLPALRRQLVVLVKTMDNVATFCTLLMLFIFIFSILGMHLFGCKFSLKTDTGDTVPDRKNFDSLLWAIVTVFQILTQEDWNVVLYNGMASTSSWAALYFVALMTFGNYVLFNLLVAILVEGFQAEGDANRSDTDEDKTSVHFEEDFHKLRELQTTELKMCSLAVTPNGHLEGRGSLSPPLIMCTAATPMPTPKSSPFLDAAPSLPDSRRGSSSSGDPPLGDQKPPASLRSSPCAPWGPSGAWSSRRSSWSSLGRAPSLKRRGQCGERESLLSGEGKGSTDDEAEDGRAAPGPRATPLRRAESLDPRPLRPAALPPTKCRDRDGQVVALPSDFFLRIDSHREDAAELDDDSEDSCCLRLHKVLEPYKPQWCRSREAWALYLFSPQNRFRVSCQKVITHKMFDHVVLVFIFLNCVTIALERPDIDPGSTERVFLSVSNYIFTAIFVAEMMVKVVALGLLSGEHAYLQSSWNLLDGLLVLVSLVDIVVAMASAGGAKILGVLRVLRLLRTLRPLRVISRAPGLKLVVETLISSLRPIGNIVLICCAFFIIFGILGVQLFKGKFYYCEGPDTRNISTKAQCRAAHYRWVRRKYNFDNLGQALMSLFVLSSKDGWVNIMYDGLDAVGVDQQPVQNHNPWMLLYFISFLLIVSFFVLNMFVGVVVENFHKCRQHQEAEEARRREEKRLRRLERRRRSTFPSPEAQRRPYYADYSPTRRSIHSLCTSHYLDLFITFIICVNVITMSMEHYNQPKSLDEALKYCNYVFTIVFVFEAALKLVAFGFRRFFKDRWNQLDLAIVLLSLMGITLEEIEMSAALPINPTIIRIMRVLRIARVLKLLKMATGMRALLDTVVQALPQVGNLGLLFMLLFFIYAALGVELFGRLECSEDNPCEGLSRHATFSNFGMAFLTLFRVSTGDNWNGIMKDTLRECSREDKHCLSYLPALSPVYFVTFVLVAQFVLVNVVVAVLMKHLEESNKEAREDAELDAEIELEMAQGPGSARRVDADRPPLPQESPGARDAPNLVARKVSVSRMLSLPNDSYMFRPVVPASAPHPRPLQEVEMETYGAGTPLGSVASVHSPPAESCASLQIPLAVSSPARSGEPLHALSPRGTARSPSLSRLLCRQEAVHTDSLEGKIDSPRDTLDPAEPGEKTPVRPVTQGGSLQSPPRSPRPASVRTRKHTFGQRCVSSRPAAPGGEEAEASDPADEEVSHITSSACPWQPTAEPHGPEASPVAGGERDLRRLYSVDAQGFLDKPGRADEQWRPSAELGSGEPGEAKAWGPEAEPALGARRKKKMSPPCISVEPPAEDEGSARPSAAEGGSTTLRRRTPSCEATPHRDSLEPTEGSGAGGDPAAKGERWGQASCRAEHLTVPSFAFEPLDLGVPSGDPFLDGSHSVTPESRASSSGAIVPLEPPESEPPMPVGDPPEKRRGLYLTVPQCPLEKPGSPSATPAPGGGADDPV
- Method Notes: Calcium flux FLIPR assay, HEK293 cells recombinantly expressing Cav3.2
- Details: Cav3.2-channel, Ca2+ entry stimulated by 10 mM CaCl2
Quantity Measured: pIC50
Numbers only, as −log10 of the molar value.

Previously resolved entries follow.
In [3]: df
Out[3]:
                                chem_smiles  readout_number
0  Cc1cn(C)c2cc(CC(=O)Nc3cnn(Cc4ccc(C#N)cc4)n3)ccc12            7.44
1  Cc1ccc(Cn2ncc(NC(=O)Cc3ccc(OC4CC(F)(F)C4)cc3)n2)cc1C#N            6.74
2  COc1cc(Cn2ncc(NC(=O)Cc3ccc(OC4CC(F)(F)C4)cc3)n2)ccc1F            7.14
3  COc1c(F)cc(Cn2ncc(NC(=O)Cc3ccc(N4CCCC4)nc3)n2)cc1F            7.55

I have 5 compounds here; please give me pIC50 for each one.
1. O=C(Cc1ccc(N2CCC(F)(F)C2)nc1)Nc1cnn(Cc2ccc(F)cc2)n1
2. COc1cc(Cn2ncc(NC(=O)Cc3ccc(C(C)(C)C)cc3)n2)cc(F)c1F
3. COc1ccc(Cn2ncc(NC(=O)Cc3ccc(N4CCC(F)(F)C4)nc3)n2)cc1F
4. N#Cc1ccc(Cn2ncc(NC(=O)Cc3ccc(OCC4CC(F)(F)C4)cc3)n2)cc1
5. CC(C)(C)c1ccc(CC(=O)Nc2cnn(Cc3ccc(F)cc3)n2)cc1

1. 8.00
2. 6.23
3. 7.33
4. 7.62
5. 7.59

I have 2 compounds here; please give me pIC50 for each one.
1. Cn1ncc2cc(CC(=O)Nc3cnn(Cc4ccc(OC(F)(F)F)c(F)c4)n3)ccc21
2. Cn1ccc2cc(CC(=O)Nc3cnn(Cc4ccc(C#N)cc4)n3)ccc21

1: 8.06; 2: 7.72
